assay-remarks: Compound 1 pH-solubility at 22° C.
Type: physicochemical
run-conditions: thermodynamic from solid; Water (5 mg/ml load), pH 2.2, 22° C.
recorded-endpoint: solubility

Input CC(C)(C)OC(=O)N1CCN(Cc2ccn(Cc3ccc(Cl)cc3)c(=O)c2O)CC1.Cl [Compound 1 HCl salt] . Output solubility: 2070 µg/mL

* * *

assay-remarks: Phase 1a multiple ascending dose study (oral solution): plasma pharmacokinetics
Format: in vivo, human
run-conditions: human, plasma, oral, 60 mg, Cohort 5, 60 mg; Day 1; Hour 8; read-out: Compound 1 concentration, Conc (SD)
recorded-endpoint: concentration at 8 h (ng/mL)
Give a bare numeral; the unit ng/mL is implied.

Note to self: concentration at 8 h recorded for `CC(C)(C)OC(=O)N1CCN(Cc2ccn(Cc3ccc(Cl)cc3)c(=O)c2O)CC1` was 0

Source: patent US20220175766A1
